combination Emax reference
system: SCC-4 (Oral Cavity Carcinoma); test: combination Emax (second highest fraction inhibited in the dose matrix, 72 h); higher = more inhibition; extreme values may be limits of the assay
# print the numeric value only

Compound | combination Emax
Cn1cnc2c(F)c(Nc3ccc(Br)cc3Cl)c(C(=O)NOCCO)cc21 [Selumetinib] + CC(C)n1c(=O)n(C)c2cnc3cc(F)c(-c4ccc(OCCCN5CCCCC5)nc4)cc3c21 [AZD1390] (first compound max 10 µM, 7x7, partner max 0.3 µM) | 0.278

Now look at this one.
Fill in the blank: the reported combination Emax of Cc1cc2ncnn2cc1Nc1ncc2c(n1)n(C1CCOCC1)c(=O)n2C [AZD7648] + C[C@@H]1COCCN1C2=NC(=NC(=C2)C3(CC3)[S@](=N)(=O)C)C4=C5C=CNC5=NC=C4 [AZD6738] (first compound max 10 µM, 7x7, partner max 10 µM) is ____.
0.575

====

test system: OAW-28 (Ovarian Carcinoma); assay: combination Emax (second highest fraction inhibited in the dose matrix, 72 h); higher = more inhibition; extreme values may be limits of the assay
Assay readout: combination Emax
Write no unit; give the number alone.

Molecule | Val
Cc1nc(Nc2ncc(C(=O)Nc3c(C)cccc3Cl)s2)cc(N2CCN(CCO)CC2)n1 [Dasatinib] + CC(=O)Nc1cccc(-n2c(=O)n(C3CC3)c(=O)c3c(Nc4ccc(I)cc4F)n(C)c(=O)c(C)c32)c1 [Trametinib] (first compound max 2 µM, 7x7, partner max 1 µM) | 0.524

From here, focus on the item given below.
Form field: reported combination Emax of CCN(CCO)CCCOc1ccc2c(Nc3cc(CC(=O)Nc4cccc(F)c4)[nH]n3)ncnc2c1 [AZD2811] + C=CCn1c(=O)c2cnc(Nc3ccc(N4CCN(C)CC4)cc3)nc2n1-c1cccc(C(C)(C)O)n1 [AZD1775] (first compound max 1 µM, partner max 1 µM)
0.213

====

test system: NCI-H2373 (Mesothelioma); assay: combination Emax (second highest fraction inhibited in the dose matrix, 72 h); higher = more inhibition; extreme values may be limits of the assay
Decide using combination Emax: a value greater than or equal to 0.4 is 1.0, a smaller one is 0.0.

Compound | Category
NC1(C(=O)N[C@@H](CCO)c2ccc(Cl)cc2)CCN(c2ncnc3[nH]ccc23)CC1 [Capivasertib] + C[C@@H]1COCCN1C2=NC(=NC(=C2)C3(CC3)[S@](=N)(=O)C)C4=C5C=CNC5=NC=C4 [AZD6738] (first compound max 10 µM, 7x7, partner max 10 µM) | 1.0
COc1cccc(OCCCN)c1-c1cc(Nc2cnc(C#N)cn2)n[nH]1 [Prexasertib] + C[C@@H]1COCCN1C2=NC(=NC(=C2)C3(CC3)[S@](=N)(=O)C)C4=C5C=CNC5=NC=C4 [AZD6738] (first compound max 1 µM, 7x7, partner max 10 µM) | 1.0
Cc1cc2ncnn2cc1Nc1ncc2c(n1)n(C1CCOCC1)c(=O)n2C [AZD7648] + CCN(CCO)CCCOc1ccc2c(Nc3cc(CC(=O)Nc4cccc(F)c4)[nH]n3)ncnc2c1 [AZD2811] (first compound max 10 µM, 7x7, partner max 1 µM) | 1.0

# bool: combination Emax of CN(CCO)CC[C@H](CSc1ccccc1)Nc1ccc(S(=O)(=O)NC(=O)c2ccc(N3CCC([C@@H](O)c4ccccc4-c4ccc(Cl)cc4)CC3)cc2)cc1S(=O)(=O)C(F)(F)F [AZD4320] + CN(C)CCCOc1ccc(-c2ccc3ncc4c(c3c2)n(C2CCOCC2)c(=O)n4C)cn1 [AZD0156] (first compound max 1 µM, 7x7, partner max 1 µM) >= 0.4
0.0

====

Let's look at some compounds and their measured combination Emax.
system: PL4 (Pancreatic Carcinoma); assay: combination Emax (second highest fraction inhibited in the dose matrix, 72 h); higher = more inhibition; extreme values may be limits of the assay
Please state the value as a number alone, without comment.

Compound | Assay readout | Val
COc1cccc(OCCCN)c1-c1cc(Nc2cnc(C#N)cn2)n[nH]1 [Prexasertib] + CCc1c2c(nc3ccc(O)cc13)-c1cc3c(c(=O)n1C2)COC(=O)[C@]3(O)CC [SN-38] (first compound max 1 µM, 7x7, partner max 0.3 µM) | combination Emax | 0.877
Cc1cc2ncnn2cc1Nc1ncc2c(n1)n(C1CCOCC1)c(=O)n2C [AZD7648] + C=CCn1c(=O)c2cnc(Nc3ccc(N4CCN(C)CC4)cc3)nc2n1-c1cccc(C(C)(C)O)n1 [AZD1775] (first compound max 10 µM, partner max 1 µM) | combination Emax | 0.379
Cn1cnc2c(F)c(Nc3ccc(Br)cc3Cl)c(C(=O)NOCCO)cc21 [Selumetinib] + C[C@@H]1COCCN1C2=NC(=NC(=C2)C3(CC3)[S@](=N)(=O)C)C4=C5C=CNC5=NC=C4 [AZD6738] (first compound max 10 µM, 7x7, partner max 10 µM) | combination Emax | 0.798
Cc1c2c(nn1C)CSCc1cc(n(C)n1)CSc1cc(c3ccccc3c1)OCCCc1c(C(=O)O)n(C)c3c-2c(Cl)ccc13 [AZD5991] + CN(C)CCCOc1ccc(-c2ccc3ncc4c(c3c2)n(C2CCOCC2)c(=O)n4C)cn1 [AZD0156] (first compound max 1 µM, 7x7, partner max 1 µM) | combination Emax | 0.357
Cc1cc2ncnn2cc1Nc1ncc2c(n1)n(C1CCOCC1)c(=O)n2C [AZD7648] + O=C(c1cc(Cc2n[nH]c(=O)c3ccccc23)ccc1F)N1CCN(C(=O)C2CC2)CC1 [Olaparib] (first compound max 10 µM, 7x7, partner max 10 µM) | combination Emax | 0.28
CN(CCO)CC[C@H](CSc1ccccc1)Nc1ccc(S(=O)(=O)NC(=O)c2ccc(N3CCC([C@@H](O)c4ccccc4-c4ccc(Cl)cc4)CC3)cc2)cc1S(=O)(=O)C(F)(F)F [AZD4320] + C[C@@H](Nc1cc(F)cc(F)c1)c1cc(C(=O)N(C)C)cc2c(=O)cc(N3CCOCC3)oc12 [AZD8186] (first compound max 1 µM, 7x7, partner max 3 µM) | combination Emax | 0.694
NC1(C(=O)N[C@@H](CCO)c2ccc(Cl)cc2)CCN(c2ncnc3[nH]ccc23)CC1 [Capivasertib] + CC(=O)c1c(C)c2cnc(Nc3ccc(N4CCNCC4)cn3)nc2n(C2CCCC2)c1=O [Palbociclib] (first compound max 10 µM, 7x7, partner max 10 µM) | combination Emax | 0.478
Cn1cnc2c(F)c(Nc3ccc(Br)cc3Cl)c(C(=O)NOCCO)cc21 [Selumetinib] + CC(C)n1c(=O)n(C)c2cnc3cc(F)c(-c4ccc(OCCCN5CCCCC5)nc4)cc3c21 [AZD1390] (first compound max 10 µM, 7x7, partner max 0.3 µM) | combination Emax | 0.567
CCN(CCO)CCCOc1ccc2c(Nc3cc(CC(=O)Nc4cccc(F)c4)[nH]n3)ncnc2c1 [AZD2811] + C=CCn1c(=O)c2cnc(Nc3ccc(N4CCN(C)CC4)cc3)nc2n1-c1cccc(C(C)(C)O)n1 [AZD1775] (first compound max 1 µM, partner max 1 µM) | combination Emax | 0.554
CC1(C)CCC(CN2CCN(c3ccc(C(=O)NS(=O)(=O)c4ccc(NCC5CCOCC5)c([N+](=O)[O-])c4)c(Oc4cnc5[nH]ccc5c4)c3)CC2)=C(c2ccc(Cl)cc2)C1 [Venetoclax] + COc1cc(Nc2ncc3c(n2)-c2ccc(Cl)cc2C(c2c(F)cccc2OC)=NC3)ccc1C(=O)O [Alisertib] (first compound max 1 µM, 7x7, partner max 10 µM) | combination Emax | 0.448

# combination Emax lookup, item C[C@@H](c1ccc2nccn2c1)n1nnc2ncc(-c3cnn(C)c3)nc21 [Savolitinib] + CC1(C)CCC(CN2CCN(c3ccc(C(=O)NS(=O)(=O)c4ccc(NCC5CCOCC5)c([N+](=O)[O-])c4)c(Oc4cnc5[nH]ccc5c4)c3)CC2)=C(c2ccc(Cl)cc2)C1 [Venetoclax] (first compound max 1 µM, 7x7, partner max 1 µM)
0.125

Give the measured combination Emax of CC1(C)CCC(CN2CCN(c3ccc(C(=O)NS(=O)(=O)c4ccc(NCC5CCOCC5)c([N+](=O)[O-])c4)c(Oc4cnc5[nH]ccc5c4)c3)CC2)=C(c2ccc(Cl)cc2)C1 [Venetoclax] + C[C@@H](Nc1cc(F)cc(F)c1)c1cc(C(=O)N(C)C)cc2c(=O)cc(N3CCOCC3)oc12 [AZD8186] (first compound max 1 µM, 7x7, partner max 3 µM) .
0.243

====

system: LCLC-103H (Non-Small Cell Lung Carcinoma); assay: Bliss excess, mean over the matrix (fraction); higher = more synergy;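 also: after 72 h of two-drug dosing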
Values of Bliss excess greater than or equal to 0.04 map to true (1); values below map to false (0).

Previously resolved entries follow.
Compound | Category
CC1(C)CCC(CN2CCN(c3ccc(C(=O)NS(=O)(=O)c4ccc(NCC5CCOCC5)c([N+](=O)[O-])c4)c(Oc4cnc5[nH]ccc5c4)c3)CC2)=C(c2ccc(Cl)cc2)C1 [Venetoclax] + CN(C)CCCOc1ccc(-c2ccc3ncc4c(c3c2)n(C2CCOCC2)c(=O)n4C)cn1 [AZD0156] (first compound max 1 µM, 7x7, partner max 1 µM) | false (0)
CN(CCO)CC[C@H](CSc1ccccc1)Nc1ccc(S(=O)(=O)NC(=O)c2ccc(N3CCC([C@@H](O)c4ccccc4-c4ccc(Cl)cc4)CC3)cc2)cc1S(=O)(=O)C(F)(F)F [AZD4320] + C=CCn1c(=O)c2cnc(Nc3ccc(N4CCN(C)CC4)cc3)nc2n1-c1cccc(C(C)(C)O)n1 [AZD1775] (first compound max 1 µM, partner max 1 µM) | false (0)
Cc1c2c(nn1C)CSCc1cc(n(C)n1)CSc1cc(c3ccccc3c1)OCCCc1c(C(=O)O)n(C)c3c-2c(Cl)ccc13 [AZD5991] + C[C@@H](Nc1cc(F)cc(F)c1)c1cc(C(=O)N(C)C)cc2c(=O)cc(N3CCOCC3)oc12 [AZD8186] (first compound max 1 µM, 7x7, partner max 3 µM) | false (0)

Could you verify whether the entry N#Cc1cnc(Nc2cc(NC[C@H]3CNCCO3)c(C(F)(F)F)cn2)cn1 [SRA737] + O=c1[nH]cc(F)c(=O)[nH]1 [5-Fluorouracil] (first compound max 10 µM, 7x7, partner max 20 µM) shows Bliss excess of no less than 0.04?
false (0)

Could you tell me if the measured Bliss excess of COc1nnc2ccc(N3CCC(c4ccc(OCCN5CCN(C)C(=O)[C@H]5C)cc4)CC3)nn12 [AZD5153] + CCN(CCO)CCCOc1ccc2c(Nc3cc(CC(=O)Nc4cccc(F)c4)[nH]n3)ncnc2c1 [AZD2811] (first compound max 1 µM, 7x7, partner max 1 µM) reaches 0.04 or more?
false (0)

Does Cc1cc2ncnn2cc1Nc1ncc2c(n1)n(C1CCOCC1)c(=O)n2C [AZD7648] + COc1cc([C@@H]2c3cc4c(cc3[C@@H](O[C@@H]3O[C@@H]5CO[C@@H](C)O[C@H]5[C@H](O)[C@H]3O)[C@H]3COC(=O)[C@H]23)OCO4)cc(OC)c1O [Etoposide] (first compound max 10 µM, 7x7, partner max 10 µM) have a reported Bliss excess of at least 0.04?
true (1)

Record Cc1c2c(nn1C)CSCc1cc(n(C)n1)CSc1cc(c3ccccc3c1)OCCCc1c(C(=O)O)n(C)c3c-2c(Cl)ccc13 [AZD5991] + C1CN(CCC1(C(=O)N[C@@H](CCO)C2=CC=C(C=C2)Cl)N)C3=NC=NC4=C3C=CN4 [Capivasertib] (first compound max 1 µM, 7x7, partner max 3 µM) ; criterion: Bliss excess no lower than 0.04. Met?
false (0)

Say whether CN(CCO)CC[C@H](CSc1ccccc1)Nc1ccc(S(=O)(=O)NC(=O)c2ccc(N3CCC([C@@H](O)c4ccccc4-c4ccc(Cl)cc4)CC3)cc2)cc1S(=O)(=O)C(F)(F)F [AZD4320] + Cc1cc2ncnn2cc1Nc1ncc2c(n1)n(C1CCOCC1)c(=O)n2C [AZD7648] (first compound max 1 µM, 7x7, partner max 10 µM) shows Bliss excess of 0.04 or more.
false (0)

Kindly determine if Bliss excess recorded for COc1cccc(OCCCN)c1-c1cc(Nc2cnc(C#N)cn2)n[nH]1 [Prexasertib] + O=C(c1cc(Cc2n[nH]c(=O)c3ccccc23)ccc1F)N1CCN(C(=O)C2CC2)CC1 [Olaparib] (first compound max 1 µM, 7x7, partner max 10 µM) is above or exactly 0.04.
false (0)

In plain terms: is recorded Bliss excess at least 0.04 for N#Cc1cnc(Nc2cc(NC[C@H]3CNCCO3)c(C(F)(F)F)cn2)cn1 [SRA737] + Nc1ccn([C@@H]2O[C@H](CO)[C@@H](O)C2(F)F)c(=O)n1 [Gemcitabine] (first compound max 10 µM, 7x7, partner max 0.3 µM) ?
true (1)

// inclusive: Bliss excess at least 0.04? input: COc1cccc(OCCCN)c1-c1cc(Nc2cnc(C#N)cn2)n[nH]1 [Prexasertib] + CCc1c2c(nc3ccc(O)cc13)-c1cc3c(c(=O)n1C2)COC(=O)[C@]3(O)CC [SN-38] (first compound max 1 µM, 7x7, partner max 0.3 µM)
true (1)

From: the supplement of paper PMC11061612
